Ref: ChEMBL document CHEMBL5154908

Assay: Metabolic stability in rat liver microsomes assessed as half life at 1 uM preincubated for 10 mins followed by NADPH addition and measured after 30 mins by LC/MS/MS analysis
Format: ADME, Microsome
Conditions: time 40 min
# half-life at 1 µM values compiled below

// below: answered compounds
>>> print(df.to_string())
                                entrysmiles            readout     value
0  Cc1ccc(-n2nc(C(C)(C)C)cc2NC(=O)N[C@H]2CC[C@@H](Oc3ccc4nnc(C(C)C)n4c3)c3ccccc32)cc1  half-life at 1 µM  < 10 min
1  Cc1ccc(-n2nc(C(C)(C)C)cc2NC(=O)N[C@H]2CC[C@@H](Oc3ccc4nnc(N5CCCCC5)n4c3)c3ccccc32)cc1  half-life at 1 µM  < 10 min

Let us move to another entry and its half-life at 1 µM.
Input line: Bench note: what half-life at 1 µM did C[C@H]1CCCCN1c1nnc2ccc(O[C@@H]3CC[C@H](NC(=O)Nc4cc(C(C)(C)C)nn4-c4cnn(CCN(C)C)c4)c4ccccc43)cn12 show?
Output line: < 5 min
